FYI, the data here is from the supplement of paper PMC10567573.

B1: C2CD2L (parent)
chain: EPAGSLRELGVWRSLLRLRATRAG

# Variants of: B1
# assay overview: protein stability index of a GFP-peptide fusion (GPS, HEK-293T) (PSI 1-6); higher = more stable;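 note: lentivirally expressed fusions sorted by FACS into six bins by GFP to DsRed ratio, PSI derived from sequencing read proportions per bin multiplied by bin number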
# assay context: c terminus: a fixed tail appended
measured property: protein stability index
Number only, please.

Ask | # query: protein stability index of entry `E8N`
Reply | 3

Ask | # query: protein stability index of entry `L6T`
Reply | 2.83

Ask | # query: protein stability index of entry `W12E`
Reply | 3.84

Ask | # query: protein stability index of entry `S5C`
Reply | 2.36

Ask | # query: protein stability index of entry `R19M`
Reply | 2.2

Ask | # query: protein stability index of entry `R13D`
Reply | 2.62

Ask | # query: protein stability index of entry `V11Y`
Reply | 2.21

Ask | # query: protein stability index of entry `A23T`
Reply | 2.29

Ask | # query: protein stability index of entry `R19V`
Reply | 2.31

Ask | # query: protein stability index of entry `W12A`
Reply | 3.02

Ask | # query: protein stability index of entry `E8T`
Reply | 2.1

Ask | # query: protein stability index of entry `G24C`
Reply | 2.99

Ask | # query: protein stability index of entry `A23C`
Reply | 1.7

Ask | # query: protein stability index of entry `E8D`
Reply | 3.43

Ask | # query: protein stability index of entry `L9C`
Reply | 3.04

Ask | # query: protein stability index of entry `V11I`
Reply | 2.5

Ask | # query: protein stability index of entry `V11N`
Reply | 3.27

Ask | # query: protein stability index of entry `R19K`
Reply | 2.99

Ask | # query: protein stability index of entry `R7M`
Reply | 2.92

Ask | # query: protein stability index of entry `R17S`
Reply | 3.04

Ask | # query: protein stability index of entry `R13P`
Reply | 2.55

Ask | # query: protein stability index of entry `G4T`
Reply | 2.4

Ask | # query: protein stability index of entry `L16R`
Reply | 2.57

Ask | # query: protein stability index of entry `A3T`
Reply | 2.93

Ask | # query: protein stability index of entry `G4M`
Reply | 2.39

Ask | # query: protein stability index of entry `R17L`
Reply | 1.53

Ask | # query: protein stability index of entry `A20P`
Reply | 3.18

Ask | # query: protein stability index of entry `G24I`
Reply | 1.97

Ask | # query: protein stability index of entry `P2A`
Reply | 2.08

Ask | # query: protein stability index of entry `L9M`
Reply | 2.07

Ask | # query: protein stability index of entry `R22Y`
Reply | 1.34

Ask | # query: protein stability index of entry `L6I`
Reply | 2.2

Ask | # query: protein stability index of entry `R13T`
Reply | 2.05

Ask | # query: protein stability index of entry `G10I`
Reply | 1.86

Ask | # query: protein stability index of entry `L15Q`
Reply | 3.84

Ask | # query: protein stability index of entry `L18R`
Reply | 3.54

Ask | # query: protein stability index of entry `T21Y`
Reply | 2.42

Ask | # query: protein stability index of entry `R19W`
Reply | 2.22

Ask | # query: protein stability index of entry `L16T`
Reply | 2.74

Ask | # query: protein stability index of entry `G24W`
Reply | 3.29

Ask | # query: protein stability index of entry `L6W`
Reply | 2.39

Ask | # query: protein stability index of entry `S14Q`
Reply | 2.12

Ask | # query: protein stability index of entry `G4P`
Reply | 3.02

Ask | # query: protein stability index of entry `V11A`
Reply | 2.61

Ask | # query: protein stability index of entry `L6S`
Reply | 2.95

Ask | # query: protein stability index of entry `G4F`
Reply | 2.49
